Value source: the supplement of paper PMC10307832

- System: PC-3 [JPC-3]
- ASSAY_EXPLANATION: relative viability (nuclei count vs DMSO), 5 days (fraction); higher = more cells survive
- RUN_PARAMETERS: first compound 0.005 µM
Quick reference: relative viability of the listed items.
Would you mind answering with just the numeric figure?

Study these solved cases before continuing.
1) Nc1ccn([C@@H]2O[C@H](CO)[C@@H](O)[C@@H]2O)c(=O)n1 [Cytarabine] + O=C(c1cc(Cc2n[nH]c(=O)c3ccccc23)ccc1F)N1CCN(C(=O)C2CC2)CC1 [Olaparib] (partner 8 µM): 0.508
2) Nc1ccn([C@@H]2O[C@H](CO)[C@@H](O)[C@@H]2O)c(=O)n1 [Cytarabine] + NC(=O)Nc1cc(-c2cccc(F)c2)sc1C(=O)N[C@H]1CCCNC1 [AZD7762] (partner 0.2 µM): 0.746

Turning to the following compound.
The observed relative viability for Nc1ccn([C@@H]2O[C@H](CO)[C@@H](O)[C@@H]2O)c(=O)n1 [Cytarabine] + C[C@@H](Oc1cc(-c2cnn(C3CCNCC3)c2)cnc1N)c1c(Cl)ccc(F)c1Cl [Crizotinib] (partner 1 µM) when tested with PC-3 [JPC-3] stands at 0.781
